Target: PI3K alpha (Homo sapiens, UniProt P42336)
Construct: His tag (C); Tn5 (Trichoplusia ni) or TiniPro insect cells
Sequence (P42336 with tags, fused parts or gaps limits assumed): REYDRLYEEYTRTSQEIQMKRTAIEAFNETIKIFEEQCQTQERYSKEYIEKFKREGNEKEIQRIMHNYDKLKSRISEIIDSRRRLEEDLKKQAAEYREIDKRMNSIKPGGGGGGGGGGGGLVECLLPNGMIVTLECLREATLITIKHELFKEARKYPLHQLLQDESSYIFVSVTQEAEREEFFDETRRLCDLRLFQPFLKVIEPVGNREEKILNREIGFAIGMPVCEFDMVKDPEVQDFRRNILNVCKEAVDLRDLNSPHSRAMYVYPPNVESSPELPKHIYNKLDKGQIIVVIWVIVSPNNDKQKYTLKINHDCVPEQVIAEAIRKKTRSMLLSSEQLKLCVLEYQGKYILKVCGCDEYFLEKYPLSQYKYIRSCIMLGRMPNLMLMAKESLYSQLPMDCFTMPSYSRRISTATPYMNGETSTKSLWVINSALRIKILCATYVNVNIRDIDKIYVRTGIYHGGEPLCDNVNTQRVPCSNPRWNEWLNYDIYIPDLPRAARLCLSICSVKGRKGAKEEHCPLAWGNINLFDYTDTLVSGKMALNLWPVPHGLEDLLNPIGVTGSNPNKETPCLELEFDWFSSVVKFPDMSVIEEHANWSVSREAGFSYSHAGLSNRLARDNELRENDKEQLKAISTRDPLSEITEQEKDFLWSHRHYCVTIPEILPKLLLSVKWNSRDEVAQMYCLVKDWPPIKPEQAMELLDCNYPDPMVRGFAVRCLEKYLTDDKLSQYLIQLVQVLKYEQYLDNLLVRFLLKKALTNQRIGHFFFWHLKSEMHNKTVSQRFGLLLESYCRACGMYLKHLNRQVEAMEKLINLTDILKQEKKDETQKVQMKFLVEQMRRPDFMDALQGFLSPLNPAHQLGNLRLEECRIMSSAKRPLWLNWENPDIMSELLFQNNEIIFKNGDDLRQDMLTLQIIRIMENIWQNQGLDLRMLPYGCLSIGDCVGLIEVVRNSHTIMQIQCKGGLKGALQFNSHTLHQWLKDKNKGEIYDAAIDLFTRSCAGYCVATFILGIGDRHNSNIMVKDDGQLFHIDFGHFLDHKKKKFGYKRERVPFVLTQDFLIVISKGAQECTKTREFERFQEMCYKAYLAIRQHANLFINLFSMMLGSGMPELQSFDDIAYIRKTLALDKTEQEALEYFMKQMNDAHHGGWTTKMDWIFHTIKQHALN
Experiment: Enzymatic PI3K alpha isoform inhibition (lipid kinase activity, Kinase-Glo)
Conditions: Enzymatic Assay
Test Readout: IC50 (µM)

compound="Cc1ccc(-c2ccc3ncnc(-c4cccc(C(=O)N5CCN(C)CC5)c4)c3c2)cn1 [19′]" result=0.678

a. CC1(C)CN(C(=O)c2cncc(-c3ncnc4ccc(-c5cnc(N)nc5)cc34)c2)CCO1 [65′]
b. COc1ccc(-c2ccc3ncnc(-c4cccc(C(=O)N5CCN(C(C)=O)CC5)c4)c3c2)cc1C(F)(F)F [9′]
Form field 'greater IC50' accepts a or b ; which applies? Output the label that corresponds to your choice. b
